Published pKi for Sodium-dependent dopamine transporter (Rattus norvegicus), assembled from different documents, is shown next.
pKi: −log10 of the molar value.
assay readout: pKi

Oc1ccc(CCN[C@@H]2CO[C@H](C(c3ccccc3)c3ccccc3)C2)cc1: 6.59
C[C@@H]1CN(CCCn2c3ccccc3c3ccccc32)C[C@H](C)N1: 6.98
CN(C)CCCSc1nc(-c2ccccc2)nc2ccccc12: 5.21

P: c1ccc(CCCN2CCN(c3ccccn3)CC2)cc1
Q: Ic1ccccc1OC(c1ccccc1)C1CNCCO1 (racemic)
R: CCOc1ccccc1OC(c1cccc(I)c1)C1CNCCO1 (racemic)
S: Oc1ccc(CN[C@H]2CC[C@@H](CC(c3ccccc3)c3ccccc3)OC2)cc1
Problem: Order the items by recorded pKi; the first position goes to the largest value. Response field: labels, in requested order.
Result: S, Q, R, P
(S: 6.61, Q: 6.39, R: 5.50, P: 5.04)

P: Cc1ccc(-c2csc(=N)n2-c2ccc(Cl)cc2)cc1
Q: c1ccc(-c2nc(NCC(c3ccccc3)c3ccccc3)c3ccccc3n2)cc1
Problem: Between P and Q , which one shows the smaller pKi number? Use the label to indicate which entry you chose.
Result: Q
(Q: 5.27, P: 6.91)

====

Published Ki for Sodium-dependent dopamine transporter (Rattus norvegicus), assembled from different documents, is shown next.
assay readout: Ki (nM)

CN(C)Cc1ccccc1Sc1ccc(Br)cc1N: 171
Ic1cccc(O[C@@H](c2ccccc2)[C@H]2CNCCO2)c1: 1900

I: CNCc1ccccc1Sc1ccc(Br)cc1N
II: O=[N+]([O-])c1ccccc1COC(c1cccc(I)c1)C1CNCCO1 (racemic)
III: S=c1sc2ccccc2n1CCCCN1CCN(C2CCCCC2)CC1
Problem: Please order the records by their reported Ki, lowest number first. Response field: labels, in requested order.
Result: II, I, III

a: CCN(CC)c1ccc2c(-c3ccc(S(=O)(=O)NCCCCCC(=O)NCCNCCCC4(c5ccccc5)OC(C)(C)c5ccccc54)cc3S(=O)(=O)[O-])c3ccc(=[N+](CC)CC)cc-3oc2c1 (stereo not drawn)
b: CN(C)Cc1cc(F)ccc1Oc1ccc(C#N)cc1N
c: N=c1scc(-c2ccc(Cl)cc2)n1-c1ccc(Cl)cc1Cl
Problem: Order the items by recorded Ki; the first position goes to the largest value. Response field: labels, in requested order.
Result: b, a, c
(b: 68300 nM, a: 4870 nM, c: 533 nM)

A: Cc1ccc(Sc2ccccc2CN(C)C)c(N)c1
B: COc1ccccc1COC(c1cccc(I)c1)C1CNCCO1 (racemic)
Problem: Between A and B , which one shows the smaller Ki number? Use the label to indicate which entry you chose.
Result: B

A: CN(C)Cc1cc(F)ccc1Sc1ccc(C#N)cc1N
B: Clc1cccc(N2CCN(CCc3ccccc3)CC2)c1
C: COc1cc2c(cc1OC)C1=NO[C@@H](CN3CCN(C/C=C(\C)c4ccccc4)CC3)[C@@H]1CO2
D: NC12CCC(c3ccccc3)(CC1)CC2
E: N=c1scc(-c2ccc(Cl)cc2)n1-c1ccccc1F
Problem: Order the items by recorded Ki; the first position goes to the largest value. Response field: labels, in requested order.
Result: A, C, E, D, B

====

Published pKi for Sodium-dependent dopamine transporter (Rattus norvegicus, UniProt P23977), assembled from different documents, is shown next.
pKi: −log10 of the molar value.
assay readout: pKi

Example results:
Ic1ccc(O[C@@H](c2ccccc2)[C@H]2CNCCO2)cc1: 5.68
C[C@@H]1CN(CCCn2c3ccccc3c3ccccc32)C[C@@H](C)N1C: 6.36
C[C@@H]1CN(CCCN(c2ccccc2)c2ccccc2)C[C@@H](C)N1CCc1ccc(Cl)c(Cl)c1: 6.58

1: Oc1ccc(CN[C@H]2CC[C@@H](C(c3ccccc3)c3ccccc3)OC2)cc1
2: N=c1scc(-c2ccc(Br)cc2)n1-c1cccc(C(F)(F)F)c1
Problem: Return label of the item with the larger pKi. Candidates: 1 , 2 . Use the label to indicate which entry you chose.
Result: 1
